Molecular target: protein farnesyltransferase (Rattus norvegicus, UniProt Q02293+Q04631)
Construct: The enzyme is purified according to Reiss, Y., et al., Cell, 62: 81-88 (1990), utilizing steps one through three; from tissue; host or cells: rat brain
Sequence (Q02293 whole entry, one chain of several): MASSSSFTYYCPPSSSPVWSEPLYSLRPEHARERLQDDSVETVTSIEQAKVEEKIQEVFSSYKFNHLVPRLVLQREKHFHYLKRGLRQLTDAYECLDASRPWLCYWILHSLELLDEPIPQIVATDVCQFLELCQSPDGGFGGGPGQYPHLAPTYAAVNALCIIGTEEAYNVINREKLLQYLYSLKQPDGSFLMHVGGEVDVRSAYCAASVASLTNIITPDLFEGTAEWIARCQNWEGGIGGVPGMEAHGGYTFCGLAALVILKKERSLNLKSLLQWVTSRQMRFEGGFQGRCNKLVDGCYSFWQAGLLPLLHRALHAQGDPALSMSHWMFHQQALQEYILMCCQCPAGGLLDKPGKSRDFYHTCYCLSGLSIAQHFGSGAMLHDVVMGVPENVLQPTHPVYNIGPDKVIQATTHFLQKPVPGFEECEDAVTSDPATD
Experiment: Inhibition of farnesyltransferase (scintillation proximity assay, rat brain enzyme, biotin-K Ras B fragment substrate)
Type: biochemical
Settings: 1 × 10^-8 M (Table 4)
measurement-type: % inhibition of farnesyltransferase at 1 × 10^-8 M (%)

1. CSCC[C@H](NC(=O)c1ccc(CN(CCC2CCCCC2)C2CC2)cc1-c1ccccc1C)C(=O)O: 95
2. CCSC[C@H](CC(C)C)NCc1ccc(C(=O)N[C@@H](CCSC)C(=O)O)c(-c2ccccc2C)c1: 86
3. CSCC[C@H](NC(=O)c1ccc(CN(Cc2ccccc2)c2ccc(Cl)cc2)cc1-c1ccccc1C)C(=O)O: 87
4. CCCCS(=O)(=O)N(CCCc1ccccc1)Cc1ccc(C(=O)N[C@@H](CCSC)C(=O)O)c(-c2ccccc2C)c1: 74
5. CSCC[C@H](NC(=O)c1ccc(CN(c2ccccc2)S(=O)(=O)c2ccc(C(F)(F)F)cc2)cc1-c1ccccc1C)C(=O)O: 71
6. CSCC[C@H](NC(=O)c1ccc(CN(Cc2ccc3c(c2)OCO3)c2cnccn2)cc1-c1ccccc1C)C(=O)O: 92
7. COc1cccc(CN(Cc2ccc(C(=O)N[C@@H](CCSC)C(=O)O)c(-c3ccccc3C)c2)c2ccccc2)c1: 70

----------
Biological target: protein farnesyltransferase (Rattus norvegicus, UniProt Q02293+Q04631)
Construct: The enzyme is purified according to Reiss, Y., et al., Cell, 62: 81-88 (1990), utilizing steps one through three; from tissue; host or cells: rat brain
Assay: Inhibition of farnesyltransferase (scintillation proximity assay, rat brain enzyme, biotin-K Ras B fragment substrate)
Format: biochemical
Details: 1 × 10^-8 M (Table 4)
measurement-type: % inhibition of farnesyltransferase at 1 × 10^-8 M (%)

1) CSCC[C@H](NC(=O)c1ccc(CO[C@H](CSC(C)(C)C)Cc2ccccc2)cc1-c1ccccc1C)C(=O)O: 83
2) CSCC[C@H](NC(=O)c1ccc(CSCc2ccccc2)cc1-c1ccccc1C)C(=O)NS(=O)(=O)c1ccc(C)cc1: 90
3) CSCC[C@H](NC(=O)c1ccc(COCc2ccc(-c3ccc(Cl)cc3)o2)cc1-c1ccccc1C)C(=O)NS(=O)(=O)c1ccccc1: 76
4) CSCC[C@H](NC(=O)c1ccc(CO[C@@H](CC2CCCCC2)CN2CCOCC2)cc1-c1ccccc1C)C(=O)O: 95
5) CCCCS(=O)(=O)N(CCC1CCCCC1)Cc1ccc(C(=O)N[C@@H](CCSC)C(=O)O)c(-c2ccccc2C)c1: 96
6) CCCCN(CCc1ccccc1)Cc1ccc(C(=O)N[C@@H](CCSC)C(=O)O)c(-c2ccccc2C)c1: 84
7) CSCC[C@H](NC(=O)c1ccc(CN(Cc2ccccc2)c2cccc(Cl)c2)cc1-c1ccccc1C)C(=O)O: 85
8) CSCC[C@H](NC(=O)c1ccc(CN(Cc2ccc3c(c2)OCO3)c2cncnc2)cc1-c1ccccc1C)C(=O)O: 91
9) C=C[C@H](CC1CCCCC1)NCc1ccc(C(=O)N[C@@H](CCSC)C(=O)O)c(-c2ccccc2C)c1: 95
10) CSCC[C@H](NC(=O)c1ccc(COCCc2ccccc2Cl)cc1-c1ccccc1C)C(=O)[O-].[Li+]: 68
11) CSCC[C@H](NC(=O)c1ccc(CN(Cc2cncs2)C2CCSCC2)cc1-c1ccccc1C)C(=O)O: 69
12) CSCC[C@H](NC(=O)c1ccc(COCc2oc(-c3ccc(Cl)cc3)c(Cl)c2Cl)cc1-c1ccccc1C)C(=O)[O-].[Li+]: 92

----------
Biological target: protein farnesyltransferase (Rattus norvegicus, UniProt Q02293+Q04631)
Construct: The enzyme is purified according to Reiss, Y., et al., Cell, 62: 81-88 (1990), utilizing steps one through three; from tissue; host or cells: rat brain
Assay: Inhibition of farnesyltransferase (scintillation proximity assay, rat brain enzyme, biotin-K Ras B fragment substrate)
Type: biochemical
Settings: 1 × 10^-6 M (Table 2)
measurement-type: % inhibition of farnesyltransferase at 1 × 10^-6 M (%)

1) CSCC[C@H](NC(=O)c1ccc(CN(Cc2ccccc2)c2ccccc2SC)cc1-c1ccccc1C)C(=O)[O-].[Li+]: 90
2) CSCC[C@H](NC(=O)c1ccc(OCCCC2CCCCC2)cc1-c1ccccc1C)C(=O)O: 98
3) CSCC[C@H](NC(=O)c1ccc(CNCC(O)c2cccc(O)c2)cc1-c1ccccc1)C(=O)O (stereo partly shown): 45
4) CSCC[C@H](NC(=O)c1ccc(NC(=O)Cc2ccccc2)cc1-c1ccccc1C)C(=O)O: 40
5) CSCC[C@H](NC(=O)c1ccc(CN(Cc2ccccc2)c2ccccc2C(C)=O)cc1-c1ccccc1C)C(=O)O: 92

P. CSCC[C@H](NC(=O)c1ccc(CN(Cc2ccco2)C(C)C)cc1-c1ccccc1C)C(=O)O
Q. CSCCC(NC(=O)c1ccc(NC(=O)c2cncnc2)cc1-c1ccccc1)C(=O)O (stereo not shown)
## Input I'm curious whether P or Q has the smaller % inhibition of farnesyltransferase at 1 × 10^-6 M number. Which is it? Please identify the chosen entry by its label.
## Output Q

----------
Target: protein farnesyltransferase (Rattus norvegicus, UniProt Q02293+Q04631)
Construct: The enzyme is purified according to Reiss, Y., et al., Cell, 62: 81-88 (1990), utilizing steps one through three; from tissue; host or cells: rat brain
Assay: Inhibition of farnesyltransferase (scintillation proximity assay, rat brain enzyme, biotin-K Ras B fragment substrate)
Assay type: biochemical
Details: 1 × 10^-5 M (Table 1)
measurement-type: % inhibition of farnesyltransferase at 1 × 10^-5 M (%)

1. CSCC[C@H](NC(=O)c1ccc(CNc2cccc(N(C)C)c2)cc1-c1ccccc1)C(=O)O: 57
2. CSCC[C@H](NC(=O)c1ccc(CNc2cccc(CO)c2)cc1-c1ccccc1)C(=O)O: 58
3. CSCC[C@H](NC(=O)c1ccc(CNc2ccc3c(c2)Cc2ccccc2-3)cc1-c1ccccc1)C(=O)O: 53
4. COc1cc(Cl)ccc1C(=O)Nc1ccc(C(=O)N[C@@H](CCSC)C(=O)O)c(-c2ccccc2)c1: 55
5. CSCC[C@H](NC(=O)c1ccc(CNc2ccc(C)c(C)c2)cc1-c1ccccc1)C(=O)O: 67
6. CSCC[C@H](NC(=O)c1ccc(NC(=O)CCN)cc1-c1ccccc1)C(=O)O: 44
7. COc1cc2c(cc1OC)C(CNCc1ccc(C(=O)N[C@@H](CCSC)C(=O)O)c(-c3ccccc3)c1)=CC(C1CCCCC1)C2 (stereo partly shown): 55
8. CSCC[C@H](NC(=O)c1ccc(CNc2cc(C(C)(C)C)[nH]n2)cc1-c1ccccc1)C(=O)O: 79
9. CSCC[C@H](NC(=O)c1ccc(CNc2cc[nH]n2)cc1-c1ccccc1)C(=O)O: 86
10. CSCC[C@H](NC(=O)c1ccc(NC(=O)Cc2ccccc2[N+](=O)[O-])cc1-c1ccccc1)C(=O)O: 58
11. CCn1cc(NCc2ccc(C(=O)N[C@@H](CCSC)C(=O)O)c(-c3ccccc3)c2)c(=O)n1CC: 69
12. COc1ccc(NCc2ccc(C(=O)N[C@@H](CCSC)C(=O)O)c(-c3ccccc3)c2)cc1: 61

----------
Molecular target: protein farnesyltransferase (Rattus norvegicus, UniProt Q02293+Q04631)
Construct: The enzyme is purified according to Reiss, Y., et al., Cell, 62: 81-88 (1990), utilizing steps one through three; from tissue; host or cells: rat brain
Test: Inhibition of farnesyltransferase (scintillation proximity assay, rat brain enzyme, biotin-K Ras B fragment substrate)
Format: biochemical
Settings: 1 × 10^-7 M (Table 3)
Procedure: The ability of the compounds of the invention to inhibit protein farnesyltransferase or protein geranylgeranyltransferase can be measured according to the method of Moores, et al., J. Biol. Chem. 266: 14603 (1991) or the method of Vogt, et al., J. Biol. Chem. 270:660-664 (1995). […] In addition, in vitro inhibition of protein farnesyltransferase may be measured by the following procedure. […] The % inhibition of protein farnesyltransferase was determined for representative compounds of the invention.
measurement-type: % inhibition of farnesyltransferase at 1 × 10^-7 M (%)

1. CSCC[C@H](NC(=O)c1ccc(COCc2ccccc2)cc1-c1ccccc1C)C(=O)NS(=O)(=O)c1ccccc1 [Example 580]: 90
2. C=C(C)C1CC=C(COCc2ccc(C(=O)N[C@@H](CCSC)C(=O)O)c(-c3ccccc3C)c2)CC1 (stereo partly shown) [Example 521]: 94
3. CSCC[C@H](NC(=O)c1ccc(COCCc2ccc(-c3ccc(F)cc3)o2)cc1-c1ccccc1C)C(=O)[O-].[Li+] [Example 535]: 89
4. CSCC[C@H](NC(=O)c1ccc(COCc2cnco2)cc1-c1ccccc1C)C(=O)[O-].[Li+] [Example 891]: 94
